- measured.target: T1, ErmE R165A (Saccharopolyspora erythraea, UniProt P07287 1-381, R165A)
- T1 sequence: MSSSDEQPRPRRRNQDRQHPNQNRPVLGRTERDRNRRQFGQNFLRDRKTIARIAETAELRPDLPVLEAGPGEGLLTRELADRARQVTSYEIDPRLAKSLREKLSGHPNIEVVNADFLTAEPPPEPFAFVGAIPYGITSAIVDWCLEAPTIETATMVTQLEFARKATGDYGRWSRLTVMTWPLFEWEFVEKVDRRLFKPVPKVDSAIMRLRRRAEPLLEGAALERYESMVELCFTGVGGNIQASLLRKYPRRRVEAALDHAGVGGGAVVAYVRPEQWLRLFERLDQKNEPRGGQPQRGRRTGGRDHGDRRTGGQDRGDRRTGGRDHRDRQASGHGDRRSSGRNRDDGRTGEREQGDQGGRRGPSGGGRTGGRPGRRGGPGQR
- assay.notes: fluorescence polarization
measured.attribute: pKd
Please express pKd as -log10 of the molar concentration.

Documented pKd of GGCCUGCGGCAAGACGGAAAGACCAUGGUCCCUAUCUGCCGCAGGAUC (structured_RNA) [V48 Erm substrate (23S rRNA helix 73 mimic, 48 nt)] : 6.31
